Examples of binders with documented Kd follow.
# target: T1, cynomolgus/rhesus macaque CD47 protein, His Tag (ACRObiosystems, Cat. No. CD7-C52H1) (cynomolgus monkey, UniProt A0A2K5X523 19-139)
# T1 construct: Bought protein; also called Cynomolgus monkey CD47 protein; not shown: His tag
# assayText: Biacore SPR, antibody captured on CM5 chip, CD47-His protein, 25 C
Give just the numeric value; nM need not be written.

Solved entries:
>  <binder>
hz3F10-1.2 (antibody, human IgG4 S228P, kappa, V domains shown, Humanized 3F10, full-length heavy and light chains, made in CHO cells) VH: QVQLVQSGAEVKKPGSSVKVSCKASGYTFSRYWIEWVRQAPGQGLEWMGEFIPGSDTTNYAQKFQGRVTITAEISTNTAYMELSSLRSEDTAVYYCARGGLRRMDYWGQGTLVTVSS VL: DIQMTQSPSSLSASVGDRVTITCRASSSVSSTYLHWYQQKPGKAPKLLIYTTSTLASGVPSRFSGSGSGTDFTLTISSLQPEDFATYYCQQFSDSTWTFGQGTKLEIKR

>  <resultUnits>
nM

>  <Kd>
1.33

$$$$
>  <binder>
hz14A9-2.3 (antibody, human IgG4 S228P, kappa, V domains shown) VH: QVQLVQSGAEVKKPGASVKVSCKVSGFNIEDDYIEWVRQAPGQGLEWMGRIDPANDKTKYAQKFQGRVTMTGDTSTNTVYMELSSLRSEDTAVYYCARPGLRRYYSMDYWGQGTLVTVSS VL: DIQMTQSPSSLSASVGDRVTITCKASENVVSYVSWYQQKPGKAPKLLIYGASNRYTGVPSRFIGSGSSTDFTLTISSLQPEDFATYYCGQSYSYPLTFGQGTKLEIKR

>  <resultUnits>
nM

>  <Kd>
3.07

$$$$
>  <binder>
hz3F10-5.1 (antibody, human IgG4 S228P, kappa, V domains shown, Humanized 3F10, full-length heavy and light chains, made in CHO cells) VH: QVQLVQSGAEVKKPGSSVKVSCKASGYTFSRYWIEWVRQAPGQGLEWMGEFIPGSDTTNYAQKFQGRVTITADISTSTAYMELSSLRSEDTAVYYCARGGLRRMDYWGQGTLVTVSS VL: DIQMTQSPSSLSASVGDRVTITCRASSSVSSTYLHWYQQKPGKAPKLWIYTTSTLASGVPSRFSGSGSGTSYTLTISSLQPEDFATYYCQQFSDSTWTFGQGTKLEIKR

>  <resultUnits>
nM

>  <Kd>
1.3

$$$$
>  <binder>
hz3F10-6.2 (antibody, human IgG4 S228P, kappa, V domains shown, Humanized 3F10, full-length heavy and light chains, made in CHO cells) VH: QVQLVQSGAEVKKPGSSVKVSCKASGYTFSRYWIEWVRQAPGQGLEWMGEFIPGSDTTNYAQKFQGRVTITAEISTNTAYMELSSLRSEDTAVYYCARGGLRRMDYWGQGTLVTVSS VL: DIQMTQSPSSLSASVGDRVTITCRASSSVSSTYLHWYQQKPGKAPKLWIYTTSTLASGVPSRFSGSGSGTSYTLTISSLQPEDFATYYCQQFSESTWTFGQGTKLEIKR

>  <resultUnits>
nM

>  <Kd>
1.15

$$$$

Value of measured Kd for the entry hz3F10-3.2 (antibody, human IgG4 S228P, kappa, V domains shown, Humanized 3F10, full-length heavy and light chains, made in CHO cells) VH: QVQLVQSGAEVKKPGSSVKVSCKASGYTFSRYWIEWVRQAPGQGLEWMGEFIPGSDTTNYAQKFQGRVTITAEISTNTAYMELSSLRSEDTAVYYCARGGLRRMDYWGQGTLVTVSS VL: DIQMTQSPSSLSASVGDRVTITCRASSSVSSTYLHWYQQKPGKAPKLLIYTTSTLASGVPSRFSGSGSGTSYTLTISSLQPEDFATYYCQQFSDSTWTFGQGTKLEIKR : 1.47

The measured values listed here are drawn from patent US20240269278A1.
